molecular target: T1, purified recombinant human insulin receptor (IR-A) (human, UniProt P06213-2 28-1370, limits assumed); assay: SPA competition, displacement of A14Tyr[125I]-human insulin from human insulin receptor, 0% HSA; relative to desB30 human insulin = 100%
T1 construct: The receptor was captured on SPA beads through the F12 antibody

# Binder, Units Of Measure, IR-A affinity (0% HSA)
records = [
    ("A18L, A22K(N^ε-Octadecandioyl-γGlu-[2-(2-{2-[2-(2-aminoethoxy)ethoxy]acetylamino}ethoxy)ethoxy]-acetyl), B29R, desB30 human insulin (ligand, A22K(N^ε-Octadecandioyl-γGlu-[2-(2-{2-[2-(2-aminoethoxy)ethoxy]acetylamino}ethoxy)ethoxy]-acetyl), also called C18-gGlu-OEG-OEG, A18L, A22K, B29R) chain 1: GIVEQCCTSICSLYQLELYCNK chain 2: FVNQHLCGSHLVEALYLVCGERGFFYTPR", "%", 339),
    ("A14E, A22K(N^ε-Octadecandioyl-γGlu-(3-(2-{2-[2-(2-aminoethoxy)ethoxy]ethoxy}ethoxy)propionyl)-γGlu), B25H, B29R, desB30 human insulin (ligand, A22K(N^ε-Octadecandioyl-γGlu-(3-(2-{2-[2-(2-aminoethoxy)ethoxy]ethoxy}ethoxy)propionyl)-γGlu), also called C18-gGlu-PEG3-gGlu, A14E, A22K, B25H, B29R) chain 1: GIVEQCCTSICSLEQLENYCNK chain 2: FVNQHLCGSHLVEALYLVCGERGFHYTPR", "%", 23),
    ("A8H, A22K(N^ε-Octadecandioyl-γGlu-[2-(2-{2-[2-(2-aminoethoxy)ethoxy]acetylamino}ethoxy)ethoxy]-acetyl), B29R, desB30 human insulin (ligand, A22K(N^ε-Octadecandioyl-γGlu-[2-(2-{2-[2-(2-aminoethoxy)ethoxy]acetylamino}ethoxy)ethoxy]-acetyl), also called C18-gGlu-OEG-OEG, A8H, A22K, B29R) chain 1: GIVEQCCHSICSLYQLENYCNK chain 2: FVNQHLCGSHLVEALYLVCGERGFFYTPR", "%", 417),
    ("A14E, A22K(N^ε-Octadecandioyl-γGlu-(3-[2-(2-{2-[2-(2-{2-[2-(2-aminoethoxy)ethoxy]ethoxy}ethoxy)ethoxy]ethoxy}ethoxy)ethoxy]propionyl)), B25H, B29R, desB30 … (ligand, A22K(N^ε-Octadecandioyl-γGlu-(3-[2-(2-{2-[2-(2-{2-[2-(2-aminoethoxy)ethoxy]ethoxy}ethoxy)ethoxy]ethoxy}ethoxy)ethoxy]propionyl)), also called C18-gGlu-PEG7, A14E, A22K, B25H, B29R) chain 1: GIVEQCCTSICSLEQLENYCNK chain 2: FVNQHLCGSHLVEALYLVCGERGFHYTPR", "%", 28),
    ("A14E, A22K(N^ε-[2-(2-[2-(2-[2-(Octadecandioyl-γGlu)amino]ethoxy)ethoxy]acetylamino)ethoxy]ethoxy)-acetyl]), B25H, B29R, desB30 human insulin (ligand, A22K(N^ε-[2-(2-[2-(2-[2-(Octadecandioyl-γGlu)amino]ethoxy)ethoxy]acetylamino)ethoxy]ethoxy)-acetyl]), also called C18-gGlu-OEG-OEG, A14E, A22K, B25H, B29R) chain 1: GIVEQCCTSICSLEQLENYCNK chain 2: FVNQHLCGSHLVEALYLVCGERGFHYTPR", "%", 22.4),
    ("A14E, A22K(N^ε-Eicosanedioyl-γGlu-γGlu-(3-[2-(2-{2-[2-(2-{2-[2-(2-aminoethoxy)ethoxy]ethoxy}ethoxy)ethoxy]ethoxy}ethoxy)ethoxy]propionyl)), B25H, B29R, desB30 … (ligand, A22K(N^ε-Eicosanedioyl-γGlu-γGlu-(3-[2-(2-{2-[2-(2-{2-[2-(2-aminoethoxy)ethoxy]ethoxy}ethoxy)ethoxy]ethoxy}ethoxy)ethoxy]propionyl)), also called C20-gGlu-gGlu-PEG7, A14E, A22K, B25H, B29R) chain 1: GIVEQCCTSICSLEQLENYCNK chain 2: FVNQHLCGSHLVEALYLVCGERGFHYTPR", "%", 25),
]
